Test: log P by HPLC on a reversed-phase column (C 18), EEC Directive 79/831 Annex V.A8
Assay type: physicochemical
Settings: acidic range, pH 2.7, 0.1% aqueous formic acid/acetonitrile; 55° C.
A collection of compounds and their measured LOGP_HCOOH

compound: CCC[S+]([O-])c1cc(C(F)(F)F)cnc1-c1nc2cc(C(F)(F)F)ncc2n1C (centres unmarked)
LOGP_HCOOH: 3.52
//
compound: CCS(=O)(=O)c1cc(C(N)=O)cnc1-c1nc2cc(C(F)(F)F)ncc2n1C
LOGP_HCOOH: 1.61
//
compound: Cn1c(-c2ncccc2SC(F)(F)F)nc2cc(C(F)(F)F)ncc21
LOGP_HCOOH: 3.04
//
compound: CC(C)[S+]([O-])c1cc(C(F)(F)F)cnc1-c1nc2cc(C(F)(F)F)ncc2n1C (centres unmarked)
LOGP_HCOOH: 3.54
//
compound: Cn1c(-c2ccc(F)cc2[S+](C)[O-])nc2cc(C(F)(F)F)ncc21 (centres unmarked)
LOGP_HCOOH: 1.88
//
compound: CCS(=O)(=O)c1cc(C(F)(F)F)cnc1-c1nc2cc(Cl)ncc2n1C
LOGP_HCOOH: 2.61
//
compound: CC(C)Sc1cc(C(F)(F)F)cnc1-c1nc2cc(C(F)(F)F)ncc2n1C
LOGP_HCOOH: 3.80
//
compound: CCS(=O)(=O)c1cc(C#N)cnc1-c1nc2cc(C(F)(F)F)ncc2n1C
LOGP_HCOOH: 2.32
//
compound: Cn1c(-c2ncc(C(F)(F)F)cc2SCCO)nc2cc(C(F)(F)F)ncc21
LOGP_HCOOH: 2.41
//
compound: CCCSc1ccc(OC)nc1-c1nc2cc(C(F)(F)F)ncc2n1C
LOGP_HCOOH: 3.50
//
compound: CC[S+]([O-])c1cc(C(F)(F)F)cnc1-c1nc2cc(C(F)(F)F)ncc2n1C (centres unmarked)
LOGP_HCOOH: 3.17
//
compound: CCS(=O)(=O)CCS(=O)(=O)c1cc(C(F)(F)F)cnc1-c1nc2cc(C(F)(F)F)ncc2n1C
LOGP_HCOOH: 2.72
//
compound: Cn1c(-c2ncc(C(F)(F)F)cc2S(=O)(=O)CCF)nc2cc(C(F)(F)F)ncc21 [Example I-54]
LOGP_HCOOH: 3.16
//
compound: CCSCCSc1cc(C(F)(F)F)cnc1-c1nc2cc(C(F)(F)F)ncc2n1C
LOGP_HCOOH: 4.02
//
compound: CCS(=O)(=O)c1ccc(Cl)cc1-c1nc2cc(C(F)(F)F)ncc2n1C
LOGP_HCOOH: 2.68
//
compound: CSc1cc(Cl)ccc1-c1nc2nc(C(F)(F)F)ncc2n1C
LOGP_HCOOH: 2.75
//
compound: CC[S+]([O-])c1cc(C(F)(F)F)cnc1-c1nc2cc(C(F)(F)C(F)(F)F)ncc2n1C (centres unmarked)
LOGP_HCOOH: 3.75

Value source: patent US11274097B2
